measured target: Thyrotropin receptor (Homo sapiens) (UniProt P16473)
Sequence (P16473 whole entry, looked up): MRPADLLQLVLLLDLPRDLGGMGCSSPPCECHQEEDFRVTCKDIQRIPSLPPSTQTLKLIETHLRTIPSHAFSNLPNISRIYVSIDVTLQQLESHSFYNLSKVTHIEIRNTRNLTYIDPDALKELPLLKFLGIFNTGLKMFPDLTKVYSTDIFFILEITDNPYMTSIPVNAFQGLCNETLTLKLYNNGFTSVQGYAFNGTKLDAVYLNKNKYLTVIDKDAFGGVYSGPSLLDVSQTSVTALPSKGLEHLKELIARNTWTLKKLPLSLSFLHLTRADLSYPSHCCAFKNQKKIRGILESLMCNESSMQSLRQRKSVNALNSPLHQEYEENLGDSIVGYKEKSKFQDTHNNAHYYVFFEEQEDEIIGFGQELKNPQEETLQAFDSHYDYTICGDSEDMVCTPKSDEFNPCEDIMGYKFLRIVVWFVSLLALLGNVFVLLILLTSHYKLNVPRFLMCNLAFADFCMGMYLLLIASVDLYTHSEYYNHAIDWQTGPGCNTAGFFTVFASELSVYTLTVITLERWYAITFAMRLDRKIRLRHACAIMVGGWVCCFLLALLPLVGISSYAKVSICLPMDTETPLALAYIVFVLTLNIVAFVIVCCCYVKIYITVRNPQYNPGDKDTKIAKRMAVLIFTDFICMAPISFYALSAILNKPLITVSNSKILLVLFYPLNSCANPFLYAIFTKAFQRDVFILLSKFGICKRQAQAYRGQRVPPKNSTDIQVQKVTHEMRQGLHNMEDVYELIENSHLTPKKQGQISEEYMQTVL
experimental details: qHTS for antagonists of the Thyroid Stimulation Hormone Receptor: Hit Validation in Primary Screen; note: nearly all actives have a fitted effect of over 80% in size
stated conditions: TSHR-expressing cells, cAMP antagonist mode; series mostly up to 58 µM
Hit rate of the full screen: of about 1,300 compounds, about 380 (29%) were called active. Roughly 37% stayed inconclusive and do not appear here. Calls come from the whole dose curve; as a rule, active = well fitted inhibition curve with a large enough effect; inconclusive = small, poorly fitted or top-dose-only effect; inactive = flat fitted curve, though single readings scatter. Some of the results follow.
Tick one outcome: y for active, n for inactive

-- ask Tell me the recorded outcome of this test for "O=C(Nc1ccc(Br)cc1)c1cccc(S(=O)(=O)Nc2cnc3ccccc3c2)c1" .
-- reply y

-- ask Tell me the recorded outcome of this test for "CCCCn1c(NC(=O)c2ccccc2Cl)c(C#N)c2nc3ccccc3nc21" .
-- reply y

-- ask Tell me the recorded outcome of this test for Cc1ccc(CCNC(=O)C2CC(c3cc(C(F)(F)F)cc(C(F)(F)F)c3)=NO2)cc1 (stereo not given) .
-- reply n

-- ask Tell me the recorded outcome of this test for "COc1cc(C(=O)N/N=C/c2cn(Cc3ccccc3)c3ccccc23)ccc1O" .
-- reply n

-- ask Tell me the recorded outcome of this test for "O=C(O)c1nn(CC(=O)N2CCN(c3ncc(C(F)(F)F)cc3Cl)CC2)c(=O)c2ccccc12" .
-- reply y
